Every entry's value here was drawn from patent US5681833A.

Biological target: CCK receptor (pancreas) (Rattus norvegicus, UniProt P30551)
Construct: The whole pancreas was dissected free of fat tissue and was homogenized; from tissue; host or cells: whole pancreas of male Sprague-Dawley rats, homogenate membranes
Sequence (P30551 1-444): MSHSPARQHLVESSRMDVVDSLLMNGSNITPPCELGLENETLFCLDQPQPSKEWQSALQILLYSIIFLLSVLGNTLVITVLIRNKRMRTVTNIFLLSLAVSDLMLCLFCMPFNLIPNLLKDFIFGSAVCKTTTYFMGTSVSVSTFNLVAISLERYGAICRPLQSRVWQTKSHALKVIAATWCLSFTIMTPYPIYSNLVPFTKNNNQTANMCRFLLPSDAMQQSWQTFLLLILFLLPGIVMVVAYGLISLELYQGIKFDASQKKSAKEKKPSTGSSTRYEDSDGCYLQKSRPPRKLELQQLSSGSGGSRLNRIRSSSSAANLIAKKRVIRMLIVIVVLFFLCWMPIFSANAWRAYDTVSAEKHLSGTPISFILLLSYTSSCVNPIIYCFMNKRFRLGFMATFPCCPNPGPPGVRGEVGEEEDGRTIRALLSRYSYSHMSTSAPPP
Assay: CCK Receptor Binding (Pancreas), inhibition of specific 125I-CCK-8 binding
Design: species or system rat (male Sprague-Dawley)
pIC50: −log10 of the molar value.
Measured Property: pIC50

Input line: # pIC50 lookup, item "CN1C(=O)[C@H](NC(=O)Nc2cccc(N(C)c3nn[nH]n3)c2)N=C(c2ccccc2)c2ccccc21"
Output line: < 5.52

Input line: Quick check: pIC50 of "CN1C(=O)[C@H](NC(=O)Nc2cccc(Nc3nn[nH]n3)c2)N=C(c2ccccc2)c2ccccc21" ?
Output line: < 5.52

Input line: Param item = CN1C(=O)C(C)(NC(=O)Nc2cccc(CNc3nnn[nH]3)c2)N=C(c2ccccc2)c2ccccc21 (racemic) ; retrieve measured pIC50.
Output line: 7.37

Input line: Recorded pIC50 of "CN1C(=O)[C@H](NC(=O)Nc2cccc(CNc3nn[nH]n3)c2)N=C(c2ccccc2)c2ccccc21" , please.
Output line: < 5.52

Input line: Recorded pIC50 of Cc1ccc(NC(=O)NC2N=C(c3ccccc3)c3ccccc3N(C(C)(C)C)C2=O)cc1Nc1nnn[nH]1 (racemic) , please.
Output line: 5.44

Input line: Returns the measured pIC50 for the input compound. Input: "Cc1ccc(NC(=O)N[C@@H]2N=C(c3ccccc3)c3ccccc3N(C)C2=O)cc1Nc1nn[nH]n1"
Output line: < 5.52

* * *

Could you please report measured pIC50 for the items listed next?
Biological target: CCK receptor (brain) (Cavia porcellus, UniProt H0VZC5)
Construct: the cortex was removed and homogenized in 25 mL ice-cold 0.32M sucrose; from tissue; host or cells: cortex of male Hartley guinea pigs, P2 membranes
Sequence (H0VZC5 1-426): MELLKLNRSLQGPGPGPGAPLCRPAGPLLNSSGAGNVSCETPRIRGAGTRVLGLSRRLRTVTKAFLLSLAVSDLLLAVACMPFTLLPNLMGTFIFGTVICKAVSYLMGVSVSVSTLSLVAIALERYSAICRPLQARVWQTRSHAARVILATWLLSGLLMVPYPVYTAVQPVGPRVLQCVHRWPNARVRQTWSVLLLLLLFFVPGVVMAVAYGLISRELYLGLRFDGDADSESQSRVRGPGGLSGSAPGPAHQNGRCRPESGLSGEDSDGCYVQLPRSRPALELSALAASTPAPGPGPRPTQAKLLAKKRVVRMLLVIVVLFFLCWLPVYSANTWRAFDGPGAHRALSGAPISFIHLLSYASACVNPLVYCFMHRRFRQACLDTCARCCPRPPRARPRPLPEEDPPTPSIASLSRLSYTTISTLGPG
Experiment: CCK Receptor Binding (Brain), inhibition of specific 125I-CCK-8 binding
Design: species or system guinea pig (male Hartley)
Procedure: 2. CCK Receptor Binding (Brain) CCK-8 sulphated was radiolabelled and the binding was performed according to the description for the pancreas method with minor modifications. Male Hartley guinea pigs (300-500 g) were sacrificed by decapitation and the cortex was removed and homogenized in 25 mL ice-cold 0.32M sucrose. […] The radioactivity on the filters was counted with a LKB gamma counter.
Scale: pIC50 equals -log10([C]), with [C] in mol/L.

Input line: Identify the measured pIC50 of "Cc1ccc(NC(=O)N[C@@H]2N=C(c3ccccc3)c3ccccc3N(C)C2=O)cc1Nc1nn[nH]n1" for CCK receptor (brain) (Cavia porcellus, UniProt H0VZC5).
Output line: 8.96

Input line: Param readout = pIC50; param system = CCK receptor (brain) (Cavia porcellus, UniProt H0VZC5); param query = "CN1C(=O)[C@H](NC(=O)Nc2cccc(Nc3nn[nH]n3)c2)N=C(c2ccccc2)c2ccccc21" ; response: value
Output line: 8.24

Input line: What pIC50 appears in the records for this compound with CCK receptor (brain) (Cavia porcellus, UniProt H0VZC5)? "CN1C(=O)[C@H](NC(=O)Nc2cccc(CNc3nn[nH]n3)c2)N=C(c2ccccc2)c2ccccc21"
Output line: 8.13

Input line: Form field - read-out: pIC50; system: CCK receptor (brain) (Cavia porcellus, UniProt H0VZC5); submitted item: "CN1C(=O)[C@H](NC(=O)Nc2ccc3c(c2)N(c2nn[nH]n2)CC3)N=C(c2ccccc2)c2ccccc21"
Output line: 9.96

Input line: Query pIC50 on CCK receptor (brain) (Cavia porcellus, UniProt H0VZC5) for "CN1C(=O)[C@H](NC(=O)Nc2cccc(N(C)c3nn[nH]n3)c2)N=C(c2ccccc2)c2ccccc21"
Output line: 9.24
